Would you mind telling me the reported viability, T/C of each entry?
Tested on: 889142-216-R-J1-PDC complex spheroid viability;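 further: spheroids exposed to compounds for seven days; 100% = DMSO vehicle control viability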
Test: Anticancer human tumor 889142-216-R-J1-PDC patient-derived bladder carcinoma cell line growth inhibition [POLQ]
Settings: second compound 3.16 µM; first compound 0.1 µM; hits give low values
Reply with just the number (in %).

Request: Dear colleague, I am looking for the recorded viability, T/C of the following compound: CC(C)n1c(=O)n(C)c2cnc3cc(F)c(-c4ccc(OCCCN5CCCCC5)nc4)cc3c21 + COC1C(OC(N)=O)C(O)C(Oc2ccc3c(O)c(NC(=O)c4ccc(O)c(CC=C(C)C)c4)c(=O)oc3c2C)OC1(C)C
Result: 106

Request: Would you mind telling me what viability, T/C value was observed for O=C(c1cc(Cc2n[nH]c(=O)c3ccccc23)ccc1F)N1CCN(C(=O)C2CC2)CC1 + COC1C(OC(N)=O)C(O)C(Oc2ccc3c(O)c(NC(=O)c4ccc(O)c(CC=C(C)C)c4)c(=O)oc3c2C)OC1(C)C ?
Result: 109

Request: Would you mind telling me what viability, T/C value was observed for C#Cc1c(F)ccc2cc(O)cc(-c3ncc4c(N5CC6CCC(C5)N6)nc(OCC56CCCN5CC(F)C6)nc4c3F)c12 (centres undefined) + Cc1cccc(N(C)C(=O)C2C(O)CCN2c2nc(C)cc(C(F)(F)F)c2C#N)c1 ?
Result: 85.2

Request: Name the recorded viability, T/C for O=C(Nc1ccc(O)c(NS(=O)(=O)c2ccc(F)cc2)c1)c1ccc(-c2ccccc2)cc1 + COC1C(OC(N)=O)C(O)C(Oc2ccc3c(O)c(NC(=O)c4ccc(O)c(CC=C(C)C)c4)c(=O)oc3c2C)OC1(C)C .
Result: 108

Request: Sample O=C(c1cc(Cc2n[nH]c(=O)c3ccccc23)ccc1F)N1CCN(C(=O)C2CC2)CC1 + Cc1cccc(N(C)C(=O)C2C(O)CCN2c2nc(C)cc(C(F)(F)F)c2C#N)c1 — what was its viability, T/C?
Result: 91.7

Request: May I ask what viability, T/C has been recorded for C#Cc1c(F)ccc2cc(O)cc(-c3ncc4c(N5CC6CCC(C5)N6)nc(OCC56CCCN5CC(F)C6)nc4c3F)c12 (centres undefined) + COC1C(OC(N)=O)C(O)C(Oc2ccc3c(O)c(NC(=O)c4ccc(O)c(CC=C(C)C)c4)c(=O)oc3c2C)OC1(C)C ?
Result: 84.9

Request: Look up viability, T/C: CC[C@@]1(O)C(=O)OCc2c1cc1n(c2=O)Cc2cc3c(CN(C)C)c(O)ccc3nc2-1 + Cc1cccc(N(C)C(=O)C2C(O)CCN2c2nc(C)cc(C(F)(F)F)c2C#N)c1
Result: 57.9

Request: # lookup: viability, T/C of C=CCn1c(=O)c2cnc(Nc3ccc(N4CCN(C)CC4)cc3)nc2n1-c1cccc(C(C)(C)O)n1 + Cc1cccc(N(C)C(=O)C2C(O)CCN2c2nc(C)cc(C(F)(F)F)c2C#N)c1
Result: 111

Request: Reported viability, T/C, compound CNCc1ccc(-c2[nH]c3cc(F)cc4c3c2CCNC4=O)cc1 + Cc1cccc(N(C)C(=O)C2C(O)CCN2c2nc(C)cc(C(F)(F)F)c2C#N)c1 : ____
Result: 99
